System: MOLT-4
Experiment: NCI tumour cell line growth inhibition, 48 h
The source made the active and inactive calls. Cut-off read from the data, not from the text of the source: active = GI50 up to about 1.1 µM and inactive = higher.
Respond using exactly one of the listed classes: true for active, false for inactive

Answered cases to consult:
COc1cc(-c2cc(=O)c3c(OC)c(OC)c(OC)c(OC)c3o2)c(OC)c(OC)c1OC | false
COc1ccc2nc3c4c(nccc4c2c1)-c1ncccc1C3=O | true

Shifting focus to the compound that follows.
Data request: Could you check what this test reported for NC1C[C@H](n2cc(/C=C/Br)c(=O)[nH]c2=O)C[C@@H]1CO (stereo partly drawn) ?
Data returned: false

====

Tested on: CCRF-CEM
Assay: NCI tumour cell line growth inhibition, 48 h
Activity calls are given as the source filed them. Cut-off read from the data, not from the text of the source: active = GI50 up to about 1.1 µM and inactive = higher.
In this section we review reported GI50 values for a set of compounds.

The following compounds have reported results that may help.
COc1c(O)cc2c3c(ccnc13)NC=C2 | 4.78 µM (inactive)
O=C(CC(C(=O)c1ccoc1)c1ccco1)c1ccco1 (stereo unspecified) | 24.2 µM (inactive)
CC(=O)Oc1cccc2c1C(=O)CCCC2 | > 100 µM (inactive)
Cc1cc2c(c(C(=O)O)c1C)-c1cccc(F)c1C2=O | > 100 µM (inactive)
CSC12c3cc(C)n(-c4ccccc4)c3CC(C)(C)CN1C(=O)C2Oc1ccccc1 (stereo unspecified) | 16.6 µM (inactive)
Cc1ccccc1-n1c(=O)sc2c(=O)n(-c3ccccc3)c(=S)[nH]c21 | 47.3 µM (inactive)
Cc1cc(N(CCC#N)CCC#N)ccc1/C=C(\NC(=O)/C=C/c1ccccc1)C(=O)N=[N+]=[N-] | > 100 µM (inactive)
Cc1cc2c(C=O)n[nH]c2c(C#N)c1C | > 100 µM (inactive)
OC(C1=C/C(=C\c2ccncc2)c2ccccc21)c1ccncc1 (stereo unspecified) | 7.41 µM (inactive)
CC1(C)C(=O)N(O)C(C)(C)N1N=O | > 10 µM (inactive)

Per the record, COc1ccc(N2C(=O)/C(=C\c3cccc(Oc4ccccc4)c3)S(=O)(=O)C2c2ccccc2)cc1 (stereo unspecified) has GI50 of 73.6 µM (inactive)
